- procedure_text: Drug clearance study by breathing through face masks (exhaled breath, LC-MS/MS)
- conditions: both, human, in vivo, po, 15 mL
readout: half-life (h)
Field format: number, assumed h, no unit text.

[[record]]
molecule = "CN[C@@H](C)[C@H](O)c1ccccc1 [Ephedrine]"
measurement_units = "h"
number = 10


INPUT: Sample COc1ccc2c3c1O[C@H]1[C@@H](O)C=C[C@H]4[C@@H](C2)N(C)CC[C@@]341 [Codeine] — what was its half-life?
OUTPUT: 2.9

* * *

- procedure_text: Comparative urine analysis after ingesting cough syrup (LC-MS/MS, creatinine-normalized)
- Type: in vivo, humans
- conditions: human, in vivo, 15 mL cough syrup oral
Measured k el by item
API: value field is a number in s⁻¹; no unit string.

[[record]]
smi = "COc1ccc2c3c1O[C@H]1[C@@H](O)C=C[C@H]4[C@@H](C2)N(C)CC[C@@]341"
measurement_units = "s⁻¹"
number = "8.33e-05"


Pending compound:
INPUT: Consider the compound shown here: `CN[C@@H](C)[C@H](O)c1ccccc1` What is its recorded k el?
OUTPUT: 2.78e-05

* * *

- procedure_text: Drug clearance study by breathing through face masks (exhaled breath, LC-MS/MS)
- conditions: both, human, in vivo, po, 15 mL
readout: Tmax (h)
Reply numerically in h, unit not repeated.

[[record]]
smi = "CN[C@@H](C)[C@H](O)c1ccccc1"
readout = "Tmax"
measurement_units = "h"
number = 6.9


In the following, a different molecule is considered.
INPUT: What value of Tmax has been recorded for this entry: `COc1ccc2c3c1O[C@H]1[C@@H](O)C=C[C@H]4[C@@H](C2)N(C)CC[C@@]341`
OUTPUT: 1.9

* * *

Parameter: MRT. Scope: all listed entries.
- procedure_text: clinical
- conditions: both, human, in vivo, po
Please respond with the number in h and leave the unit unwritten.

[[record]]
compound = "CN(C)CCC(c1ccc(Cl)cc1)c1ccccn1 (centres unmarked)"
number = 34.2


With those in mind, consider the next compound.
INPUT: For COc1ccccc1OCC(O)CO (centres unmarked) , what is its reported MRT?
OUTPUT: 4.8

* * *

- procedure_text: Comparative urine analysis after ingesting cough syrup (LC-MS/MS, creatinine-normalized)
- Format: in vivo, humans
- conditions: human, in vivo, time from Cmax to half of Cmax, 15 mL cough syrup oral
readout: half-life (h)
Value expressed in h; do not type the unit.

INPUT: Please look up its half-life: COc1ccc2c3c1O[C@H]1[C@@H](O)C=C[C@H]4[C@@H](C2)N(C)CC[C@@]341 [Codeine]
OUTPUT: 3.3

INPUT: Record request: half-life value, item CN[C@@H](C)[C@H](O)c1ccccc1 [Ephedrine]
OUTPUT: 6.2

* * *

Recorded MRT, one value per entry.
- procedure_text: Drug clearance study by breathing through face masks (exhaled breath, LC-MS/MS)
- conditions: both, human, in vivo, po, 15 mL
Enter your answer as a number in h; do not include the unit.

[[record]]
smi = "CN[C@@H](C)[C@H](O)c1ccccc1"
readout = "MRT"
number = 14.5


INPUT: So what's the measured MRT for this one? `COc1ccc2c3c1O[C@H]1[C@@H](O)C=C[C@H]4[C@@H](C2)N(C)CC[C@@]341`
OUTPUT: 3.9

* * *

- procedure_text: clinical
- conditions: both, human, in vivo, po
readout: Tmax (h)
Dear colleague, please return just the value in h, with no unit written.

[[record]]
molecule = "CN(C)CCC(c1ccc(Cl)cc1)c1ccccn1 (centres unmarked)"
readout = "Tmax"
number = 13.1


Please examine the following record next.
INPUT: I'd like to know its Tmax. The molecule in question is COc1ccccc1OCC(O)CO (centres unmarked)
OUTPUT: 0.9

* * *

Recorded k el values for a group of molecules are listed next.
- procedure_text: clinical
- conditions: both, human, in vivo, po
The reply should be a number in s⁻¹, with the unit left off.

[[record]]
molecule = "COc1ccccc1OCC(O)CO (centres unmarked)"
readout = "k el"
measurement_units = "s⁻¹"
number = 0.000111


Alright, here's another molecule for you.
INPUT: Would you mind telling me what k el value was observed for CN(C)CCC(c1ccc(Cl)cc1)c1ccccn1 (centres unmarked) ?
OUTPUT: 8.33e-06

* * *

- procedure_text: Drug clearance study by breathing through face masks (exhaled breath, LC-MS/MS)
- conditions: both, human, in vivo, po, 15 mL
Reported values of k el for individual entries
Report the figure in s⁻¹ without appending any unit label.

[[record]]
smi = "CN[C@@H](C)[C@H](O)c1ccccc1"
readout = "k el"
number = "2.78e-05"


INPUT: Return reported k el; argument: `COc1ccc2c3c1O[C@H]1[C@@H](O)C=C[C@H]4[C@@H](C2)N(C)CC[C@@]341`
OUTPUT: 8.33e-05
